Reference source: patent US20250136578A1

Can you tell me IC50 for the items I'm about to list?
# System: VCaP cells
# METHOD: VCaP growth inhibition assay (CTG)
# Assay type: cell-based
# CONDITION_LABEL: Homo sapiens, 216 h, 30 pM R1881, 9 days

Record summary for CC(=O)N1CCc2c(c(N3CCCc4cc(-c5cnn(C)c5)c(C(F)F)cc43)nn2C2CCC(CC3CCN(c4ccc(C(=O)N[C@H]5CC[C@H](Oc6ccc(C#N)c(Cl)c6)CC5)nn4)CC3)CC2)C1 (stereo partly drawn) : reported IC50 = 0.1 to 1 nM

Form: molecule = CC(=O)N1CCc2c(c(N3CCCc4cc(-c5cnn(C)c5)c(C(F)F)cc43)nn2[C@H]2CC[C@@H](OC3CCN(c4ccc(C(=O)N[C@H]5CC[C@H](Oc6ccc(C#N)c(Cl)c6)CC5)nn4)CC3)CC2)C1 ; IC50 = ≤ 0.1 nM

Record Cn1cc(-c2cc3cccc(-c4cc(C5=CCN(CC6CCN(c7ccc(C(=O)N[C@H]8CC[C@H](Oc9ccc(C#N)c(Cl)c9)CC8)nn7)CC6)CC5)c5c(c4)n(C)c(=O)n5C)c3cn2)cn1 . Reported IC50: 0.1 to 1 nM

###

# System: VCaP cells
# METHOD: VCaP growth inhibition assay (CTG)
# Type: cell-based
# CONDITION_LABEL: Homo sapiens, 216 h, 30 pM R1881, 9 days
pIC50: −log10 of the molar value.
Can you tell me pIC50 for the items I'm about to list?

Reported pIC50 for CC(=O)N1CCc2c(c(N3CCCc4cc(-c5ccc(OC6CC7(CCN(c8ccc(C(=O)N[C@H]9CC[C@H](Oc%10ccc(C#N)c(Cl)c%10)CC9)nn8)CC7)C6)nc5)c(C(F)F)cc43)nn2C2CCOCC2)C1 was 9.00 to 10.00

Form field pIC50, entry CC(=O)N1CCc2c(c(N3CCCc4cc(-c5cnn(C)c5)c(C(F)F)cc43)nn2C2CCC3(CC2)CN(C2CN(c4ccc(C(=O)N[C@H]5CC[C@H](Oc6ccc(C#N)c(Cl)c6)CC5)nn4)C2)C3)C1 : ≥ 10.00

// sample CC(=O)N1CCc2c(c(N3CCCc4cc(-c5cscn5)c(C(F)F)cc43)nn2C2CCN([C@@H]3CCCN(c4ccc(C(=O)N[C@H]5CC[C@H](Oc6ccc(C#N)c(Cl)c6)CC5)nn4)C3)CC2)C1 , its pIC50 was 7.00 to 9.00

// sample CC(=O)N1CCc2c(c(-c3cccc4cc(-c5ccc(N6CC(C7CCN(c8ccc(C(=O)N[C@H]9CC[C@H](Oc%10ccc(C#N)c(Cl)c%10)CC9)nn8)CC7)C6)nc5)ncc34)nn2C2CCOCC2)C1 , its pIC50 was ≥ 10.00

Item: CC(=O)N1CCc2c(c(N3CCCc4cc(-c5cnn(C)c5)c(C(F)F)cc43)nn2C2CCN(CC3(C)CCN(c4ccc(C(=O)N[C@H]5CC[C@H](Oc6ccc(C#N)c(Cl)c6)CC5)nn4)CC3)CC2)C1 | pIC50: 9.00 to 10.00

Reported pIC50 ( CO[C@@H]1CN(c2ccc(C(=O)N[C@H]3CC[C@H](Oc4ccc(C#N)c(Cl)c4)CC3)nn2)CC[C@@H]1CN1CCC(n2nc(N3CCCc4cc(-c5cnn(C)c5)c(C(F)F)cc43)c3c2CCN(C(C)=O)C3)CC1 ) = ≥ 10.00

The compound listed as COC1(CN2CCC(n3nc(N4CCCc5cc(-c6cnn(C)c6)c(C(F)F)cc54)c4c3CCN(C(C)=O)C4)CC2)CCN(c2ccc(C(=O)N[C@H]3CC[C@H](Oc4ccc(C#N)c(Cl)c4)CC3)nn2)CC1 has a reported pIC50 of ≥ 10.00

Sample Cc1cc2c(N3CCN(C)c4cc(-c5cnn(C)c5)c(C#N)cc43)cc(OCC3CCN(c4ccc(C(=O)N[C@H]5CC[C@H](Oc6ccc(C#N)c(Cl)c6)CC5)nn4)CC3)cc2n(C)c1=O ; pIC50 observed: 9.00 to 10.00

###

# Tested on: VCaP cells
# METHOD: VCaP growth inhibition assay (CTG)
# Format: cell-based
# CONDITION_LABEL: Homo sapiens, 216 h, 30 pM R1881, 9 days
Record form. Attribute: IC50. Fill in for each entry.

Record CC(=O)N1CCc2c(c(N3CCCc4cc(-c5ccc(CCC6CCN(c7ccc(C(=O)N[C@H]8CC[C@H](Oc9ccc(C#N)c(Cl)c9)CC8)nn7)CC6)cc5)c(C(F)F)cc43)nn2C2CCOCC2)C1 [Compound 154] , field IC50: 0.1 to 1 nM

Item: Cc1cc2c(N3CCN(C)c4cc(C5CC5)ncc43)cc(N3CCN(CC4CCN(c5ccc(C(=O)N[C@H]6CC[C@H](Oc7ccc(C#N)c(Cl)c7)CC6)nn5)CC4)CC3)cc2n(C)c1=O [Compound 138] | IC50: 1 to 100 nM

Value of measured IC50 for the entry CC(=O)N1CCc2c(c(-c3cccc4cc(C#N)ncc34)nn2C2CCN(CC3CCN(c4ccc(C(=O)N[C@H]5CC[C@H](Oc6ccc(C#N)c(Cl)c6)CC5)nn4)CC3)CC2)C1 [Compound 121] : 0.1 to 1 nM

Field IC50 (entry CC(=O)N1CCc2c(c(-c3cccc4cc(-c5cnn(C)c5)ncc34)nn2C2CCN(CCC3CCN(c4ccc(C(=O)N[C@H]5CC[C@H](Oc6ccc(C#N)c(Cl)c6)CC5)nn4)CC3)CC2)C1 [Compound 5] ) reads ≤ 0.1 nM

The value of IC50 measured for the compound CC(=O)N1CCc2c(c(N3CCCc4cc(-c5cnn(C)c5)c(C(F)F)cc43)nn2C2CCC3(CC2)CC(N2CCN(c4ccc(C(=O)N[C@H]5CC[C@H](Oc6ccc(C#N)c(Cl)c6)CC5)nn4)CC2)C3)C1 (some centres unmarked) [Compound 208] turned out to be ≤ 0.1 nM

Measured IC50 of Cn1c(=O)sc2ccc(-c3cccc4cc(-c5ccc(CCC6CCN(c7ccc(C(=O)N[C@H]8CC[C@H](Oc9ccc(C#N)c(Cl)c9)CC8)nn7)CC6)nc5)ncc34)cc21 [Compound 55] : > 100 nM

// CC(=O)N1CCc2c(c(N3CCCc4cc(-c5cnn(C)c5)c(C(F)F)cc43)nn2C2CCN([C@H]3CCCN(c4ccc(C(=O)N[C@H]5CC[C@H](Oc6ccc(C#N)c(Cl)c6)CC5)nn4)C3)CC2)C1 [Compound 258] : IC50 value = 1 to 100 nM

Looking up CC(=O)N1CCc2c(c(N3CCCc4cc(-c5cnn(C)c5)c(C(F)F)cc43)nn2C2CCN(C(=O)CC3CCN(c4ccc(C(=O)N[C@H]5CC[C@H](Oc6ccc(C#N)c(Cl)c6)CC5)nn4)CC3)CC2)C1 [Compound 14] , I found its IC50 recorded as ≤ 0.1 nM

###

# MEASURED_ON: AR / CBP ternary complex (Homo sapiens, UniProt P10275+Q92793)
# Sequence (P10275 whole entry): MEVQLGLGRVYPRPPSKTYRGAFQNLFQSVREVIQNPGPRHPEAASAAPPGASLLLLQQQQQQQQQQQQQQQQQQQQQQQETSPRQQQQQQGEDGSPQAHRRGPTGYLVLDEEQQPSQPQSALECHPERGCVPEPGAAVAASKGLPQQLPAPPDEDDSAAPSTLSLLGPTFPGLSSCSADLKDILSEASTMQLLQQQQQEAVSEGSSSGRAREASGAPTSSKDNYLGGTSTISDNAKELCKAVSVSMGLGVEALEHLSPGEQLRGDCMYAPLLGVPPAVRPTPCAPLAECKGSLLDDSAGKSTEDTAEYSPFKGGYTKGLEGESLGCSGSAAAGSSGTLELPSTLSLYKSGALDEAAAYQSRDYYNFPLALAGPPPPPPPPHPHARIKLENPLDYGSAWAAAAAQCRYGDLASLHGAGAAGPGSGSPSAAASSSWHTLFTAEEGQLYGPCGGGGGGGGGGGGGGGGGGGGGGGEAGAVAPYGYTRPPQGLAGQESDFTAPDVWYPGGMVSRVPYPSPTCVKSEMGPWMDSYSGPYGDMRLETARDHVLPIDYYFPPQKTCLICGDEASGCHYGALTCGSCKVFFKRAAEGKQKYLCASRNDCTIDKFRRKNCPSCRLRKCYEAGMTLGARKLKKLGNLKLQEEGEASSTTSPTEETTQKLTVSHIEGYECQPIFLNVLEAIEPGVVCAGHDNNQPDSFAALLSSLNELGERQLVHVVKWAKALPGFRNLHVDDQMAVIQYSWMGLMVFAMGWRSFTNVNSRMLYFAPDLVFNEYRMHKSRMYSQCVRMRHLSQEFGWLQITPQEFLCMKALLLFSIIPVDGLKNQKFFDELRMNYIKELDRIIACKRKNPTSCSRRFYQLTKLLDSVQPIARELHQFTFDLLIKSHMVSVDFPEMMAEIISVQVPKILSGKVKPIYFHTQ
# Sequence (Q92793 2-2442): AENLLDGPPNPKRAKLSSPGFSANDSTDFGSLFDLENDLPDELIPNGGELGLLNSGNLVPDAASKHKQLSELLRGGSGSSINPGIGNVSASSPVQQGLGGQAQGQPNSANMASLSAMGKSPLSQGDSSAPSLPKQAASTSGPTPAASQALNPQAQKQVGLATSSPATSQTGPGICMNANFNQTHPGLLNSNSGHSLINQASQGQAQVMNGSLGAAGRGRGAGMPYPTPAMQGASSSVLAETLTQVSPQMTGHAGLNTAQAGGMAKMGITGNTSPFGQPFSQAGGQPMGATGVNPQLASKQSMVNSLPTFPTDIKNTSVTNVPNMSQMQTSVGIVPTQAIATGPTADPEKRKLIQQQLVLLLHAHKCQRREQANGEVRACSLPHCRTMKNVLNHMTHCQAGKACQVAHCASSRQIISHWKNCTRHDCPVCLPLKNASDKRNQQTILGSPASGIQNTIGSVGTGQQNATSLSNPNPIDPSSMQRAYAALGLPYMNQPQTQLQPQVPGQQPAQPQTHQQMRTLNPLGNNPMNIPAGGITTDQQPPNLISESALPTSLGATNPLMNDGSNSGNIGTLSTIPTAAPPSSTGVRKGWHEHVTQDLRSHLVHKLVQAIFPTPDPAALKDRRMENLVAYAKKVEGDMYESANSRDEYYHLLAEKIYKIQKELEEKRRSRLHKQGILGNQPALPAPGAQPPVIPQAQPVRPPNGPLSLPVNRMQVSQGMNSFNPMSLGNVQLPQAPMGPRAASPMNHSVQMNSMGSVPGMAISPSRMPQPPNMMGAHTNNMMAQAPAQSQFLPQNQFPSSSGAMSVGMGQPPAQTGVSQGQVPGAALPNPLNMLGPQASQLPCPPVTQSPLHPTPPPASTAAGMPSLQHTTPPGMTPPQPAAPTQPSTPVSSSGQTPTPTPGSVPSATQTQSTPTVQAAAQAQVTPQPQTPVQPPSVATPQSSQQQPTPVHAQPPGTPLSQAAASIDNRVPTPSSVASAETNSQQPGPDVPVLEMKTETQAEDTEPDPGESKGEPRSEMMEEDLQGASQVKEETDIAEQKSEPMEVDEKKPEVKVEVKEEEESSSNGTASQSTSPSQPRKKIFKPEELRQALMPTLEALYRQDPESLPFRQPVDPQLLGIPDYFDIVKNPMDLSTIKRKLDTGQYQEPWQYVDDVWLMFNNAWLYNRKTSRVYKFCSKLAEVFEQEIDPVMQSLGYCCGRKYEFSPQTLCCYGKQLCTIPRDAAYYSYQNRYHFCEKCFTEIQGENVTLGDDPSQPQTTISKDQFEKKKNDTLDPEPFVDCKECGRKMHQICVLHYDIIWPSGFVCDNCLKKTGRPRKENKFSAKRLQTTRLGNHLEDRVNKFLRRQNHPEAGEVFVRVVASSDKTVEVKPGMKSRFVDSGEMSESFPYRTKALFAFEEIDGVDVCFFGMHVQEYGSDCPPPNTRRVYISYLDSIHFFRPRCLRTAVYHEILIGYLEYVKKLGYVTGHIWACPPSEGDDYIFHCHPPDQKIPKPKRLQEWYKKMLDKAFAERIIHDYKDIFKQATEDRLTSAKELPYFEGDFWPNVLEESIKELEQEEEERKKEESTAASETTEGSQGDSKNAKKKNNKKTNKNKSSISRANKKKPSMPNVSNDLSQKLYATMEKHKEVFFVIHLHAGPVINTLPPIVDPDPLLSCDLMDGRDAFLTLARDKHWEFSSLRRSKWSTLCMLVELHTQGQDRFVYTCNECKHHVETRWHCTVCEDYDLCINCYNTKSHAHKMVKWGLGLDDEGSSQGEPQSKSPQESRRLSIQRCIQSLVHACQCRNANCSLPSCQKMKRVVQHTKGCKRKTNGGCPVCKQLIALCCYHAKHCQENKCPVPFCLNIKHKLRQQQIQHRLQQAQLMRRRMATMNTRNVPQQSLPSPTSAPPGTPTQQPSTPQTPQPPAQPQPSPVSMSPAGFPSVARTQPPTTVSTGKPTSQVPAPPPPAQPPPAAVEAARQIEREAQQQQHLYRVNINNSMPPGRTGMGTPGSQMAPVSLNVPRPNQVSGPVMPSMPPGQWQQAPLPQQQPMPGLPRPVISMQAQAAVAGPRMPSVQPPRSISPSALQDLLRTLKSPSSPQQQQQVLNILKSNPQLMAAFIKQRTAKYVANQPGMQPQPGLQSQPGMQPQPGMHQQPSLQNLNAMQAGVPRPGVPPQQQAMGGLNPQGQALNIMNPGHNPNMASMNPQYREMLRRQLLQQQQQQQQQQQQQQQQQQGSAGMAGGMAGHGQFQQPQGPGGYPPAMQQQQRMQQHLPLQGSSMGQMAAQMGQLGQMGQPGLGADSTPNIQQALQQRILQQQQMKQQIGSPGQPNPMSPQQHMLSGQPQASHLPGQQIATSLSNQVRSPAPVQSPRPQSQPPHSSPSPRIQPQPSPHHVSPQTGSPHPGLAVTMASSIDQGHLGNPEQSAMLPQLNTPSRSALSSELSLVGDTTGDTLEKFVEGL
# METHOD: Ternary complex formation assay (sandwich ELISA, AR capture, CBP antibody detection) in VCaP cell lysates
# Format: cell-based
# CONDITION_LABEL: treated 1.5 hours, rabbit CBP or p300 antibody detection, average, read-out: Average Ternary Complex
pEC50: −log10 of the molar value.
REPORTED_ENDPOINT: pEC50

GET /value?item= Cn1c(=O)sc2ccc(N3CCCc4cc(-c5ccc(CCC6CCN(c7ccc(C(=O)N[C@H]8CC[C@H](Oc9ccc(C#N)c(Cl)c9)CC8)nn7)CC6)nc5)ncc43)cc21 &field=pEC50 returns > 9.00

Value of pEC50 reported for the molecule CC(=O)N1CCc2c(c(N3CCCc4ccc(C(F)F)cc43)nn2C2CC3(C2)CN(C(=O)C2CC4(C2)CN(c2ccc(C(=O)N[C@H]5CC[C@H](Oc6ccc(C#N)c(Cl)c6)CC5)nn2)C4)C3)C1 (stereo partly shown) is 8.00 to 9.00

Consider Cc1cc2c(N3CCN(C)c4cc(-c5cnn(C)c5)c(C#N)cc43)cc(OCC3CCN(c4ccc(C(=O)N[C@H]5CC[C@H](Oc6ccc(C#N)c(Cl)c6)CC5)nn4)CC3)cc2n(C)c1=O . Its measured pEC50 is < 7.00

pEC50 measured on CC(=O)N1CCc2c(c(N3CCCc4cc(-c5cnn(C)c5)c(C)cc43)nn2C2CCN(C3CCC4(CC3)CN(c3ccc(C(=O)N[C@H]5CC[C@H](Oc6ccc(C#N)c(C(F)(F)F)c6)CC5)nn3)C4)CC2)C1 = < 7.00

Data point: CC(=O)N1CCc2c(c(N3CCCc4cc(-c5cnn(C)c5)c(C(F)F)cc43)nn2C2CCN(CC3CCN(c4ncc(C(=O)N[C@H]5CC[C@H](Oc6ccc(C#N)c(Cl)c6)CC5)cn4)CC3)CC2)C1 ; pEC50 = > 9.00

Sample CC(=O)N1CCc2c(c(N3CCCc4cc(-c5cnn(C)c5)c(C(F)F)cc43)nn2C2CCN(C3CCC4(CC3)CC(Oc3ccc(C(=O)N[C@H]5CC[C@H](Oc6ccc(C#N)c(Cl)c6)CC5)nn3)C4)CC2)C1 (stereo partly shown) ; pEC50 observed: > 9.00

Item: CC(=O)N1CCc2c(c(N3CCCc4cc(-c5cnn(C)c5)c(C(F)F)cc43)nn2[C@H]2CC[C@H](N3CCC4(CC3)CC(Oc3ccc(C(=O)N[C@H]5CC[C@H](Oc6ccc(C#N)c(Cl)c6)CC5)nn3)C4)CC2)C1 | pEC50: > 9.00

For CC(=O)N1CCc2c(c(N3CCCc4cc(-c5cnn(C)c5)c(C)cc43)nn2C2CCN(C(=O)C3CCN(c4ccc(C(=O)N[C@H]5CC[C@H](Oc6ccc(C#N)c(Cl)c6)CC5)nn4)CC3)CC2)C1 the molecule record lists pEC50 as > 9.00

Consider COC(=O)N1c2ccc3c(nc(Cc4ccccc4)n3[C@@H]3CCC[C@H](OC4CCN(c5ccc(C(=O)N[C@H]6CC[C@H](Oc7ccc(C#N)c(Cl)c7)CC6)nn5)CC4)C3)c2CC[C@@H]1C . Its measured pEC50 is > 9.00

Recorded pEC50 (molecule CC(=O)N1CCc2c(c(N3CCCc4cc(-c5cnn(C)c5)c(C(F)F)cc43)nn2[C@H]2CC[C@@H](N3CCC4(CC3)CN(c3ccc(C(=O)N[C@H]5CC[C@H](Oc6ccc(C#N)c(Cl)c6)CC5)nn3)C4)CC2)C1 ): > 9.00

Lookup result for CC(=O)N1CCc2c(c(-c3cccc4cc(-c5ccc(CCC6CCN(c7ccc(C(=O)N[C@H]8CC[C@H](Oc9ccc(C#N)c(Cl)c9)CC8)nn7)CC6)nc5)ncc34)nn2C)C1 ; measured pEC50: > 9.00

Entry CN1C(=O)CCc2cc(N3CCCc4cc(-c5ccc(CCC6CCN(c7ccc(C(=O)N[C@H]8CC[C@H](Oc9ccc(C#N)c(Cl)c9)CC8)nn7)CC6)nc5)ncc43)ccc21 ; pEC50 = < 7.00

Record CC(=O)N1CCc2c(c(N3CCCc4cc(-c5cnn(C)c5)c(C(F)F)cc43)nn2[C@H]2CC[C@H](N3CC4(CC(Oc5ccc(C(=O)N[C@H]6CC[C@H](Oc7ccc(C#N)c(Cl)c7)CC6)nn5)C4)C3)CC2)C1 , field pEC50: > 9.00
